# Experimental protocol: Quantitative High-Throughput drug screen in 47 multiple myeloma cell lines against the NCATS MIPE library collection: OCIMY1_PLB cell viability assay (AID 1918979); further: nearly all actives have a fitted effect of over 35% in size
# Particulars: OCI-MY1 myeloma viability, CellTiter-Glo ATP, 48 h; series mostly up to 45.8 µM
Records with an inconclusive call do not appear. Active and inactive are the calls of the source. The call rests on the fitted dose curve; in most records, active means well fitted cell-killing curve with a large enough effect; inconclusive means small, poorly fitted or top-dose-only effect, or effect the other way; inactive means no such curve, though single readings can be large or run the other way.
// allowed return values: YES (active), NO (inactive)

Q: How did this test come out for COc1cc([C@@H]2c3cc4c(cc3[C@@H](O)C3COC(=O)C32)OCO4)cc(OC)c1O (stereo partly specified) ?
A: YES

Q: Lab log entry: `CC1(N2CCC(n3c([C@@H]4CCCNC4)nc4ccccc43)CC2)CCCCCCC1` — outcome as called in the assay?
A: YES

Q: Short answer needed: outcome of this test for `CC[C@@]1(O)C(=O)OCc2c1cc1n(c2=O)Cc2cc3ccccc3nc2-1` ?
A: YES

Q: Returns: the outcome recorded for `O=C(O)CNC(=O)c1c(O)c2ccccc2n(Cc2ccccc2)c1=O` in this assay.
A: NO

Q: Hi, sorry to bother you, what did the test record for `C[C@H]([C@H](O)CCC(C)(C)O)[C@H]1CC[C@@]2(O)C3=CC(=O)[C@@H]4C[C@@H](O)[C@@H](O)C[C@]4(C)[C@@H]3CC[C@]12C` ?
A: NO

Q: What is the recorded call for this compound in the test? `CCc1c(C(=O)C(N)=O)c2c(OCC(=O)O)cccc2n1Cc1ccccc1`
A: NO
